- assay-notes: NCI Yeast Anticancer Drug Screen. Data for the mec2-1 strain (AID 157)
- test-settings: S. cerevisiae mec2-1 strain; at 50.0 µM unless noted
This is part of a sample that, as a whole, favours compounds with a hit. Of some 79,000 tested, about 15% had one in any assay. Calls of active or inactive are those of the source. No stated cut-off is given here; in the data, active means growth inhibition above about 70%; inactive means the rest.
Outcome codes: active, inactive

molecule	label-class
CC1CC(=O)C(CC(=O)O)C1C(C(=O)C(=O)Nc1c(C#N)cccc1[N+](=O)[O-])[N+](=O)[O-] (configuration not stated)	inactive
COc1cc(CC(=O)C(=O)O)ccc1O	inactive
O=C1c2ccccc2C(=O)N1c1ccc(Cc2ccc(N3C(=O)c4ccccc4C3=O)cc2)cc1	inactive
CCCCSCC(N)CO (configuration not stated)	inactive
CCOC(=O)c1c(-c2ccccc2)csc1NS(=O)(=O)c1ccc(C)cc1	active
Cc1cccc(C(=N)c2ccccc2Cc2cccc3ccccc23)c1C	inactive
CC1=NN(C(=O)CC(=O)Nc2ccc(C)cc2)C(=O)C1N=Nc1ccc(S(=O)(=O)c2ccc(N=NC3C(=O)N(C(=O)CC(=O)Nc4ccc(C)cc4)N=C3C)cc2)cc1 (configuration not stated)	inactive

====

Known growth inhibition of a selection of compounds
- assay-notes: NCI Yeast Anticancer Drug Screen. Data for the rad50 strain (AID 155);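 further: 0% = growth of vehicle-only cultures of the same strain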
- test-settings: S. cerevisiae rad50 strain growth inhibition, hits give high values; at 50.0 µM unless noted
The panel holds about 79,000 compounds, 15% with a hit somewhere; the sample as a whole holds those more often. The source made the active and inactive calls. Rule as the data show it: active = growth inhibition above about 70%; inactive = the rest. Where a SMILES comes first, the peptide text is derived from it. [ ]: non-standard residue; d: D form. The star is where a group is joined. Cbz = O=C(OCc1ccccc1)*; Nva = CCC[CH](N)C(=O)O
test-readout: growth inhibition

> print(dat)
                                    compound             result
 1  O=C(Cc1ccccc1)NCCCN(CCCCN(CCCNC(=O)Cc1ccccc1)C(=O)OCc1ccccc1)C(=O)OCc1ccccc1  -11.9% (inactive)
 2         CC(=O)Oc1cc(C)c(OC(C)=O)c2ccccc12   -6.6% (inactive)
 3         CCOC(OCC)c1cc(=O)[nH]c(NC(C)=O)n1  -1.15% (inactive)
 4  CCCC(NC(=O)OCc1ccccc1)C(=O)NC(CC(C)C)C(N)=O (stereo not given) (Cbz-[Nva]-Leu-NH2; configuration not given here)   12.9% (inactive)
 5  NC(N)=N/N=C(\c1ccc(C(F)(F)F)cc1)c1ccc(Cl)c(Cl)c1     99.5% (active)
 6              CCc1c(CC)c(CC)c(CC)c(CC)c1CC  -42.3% (inactive)
 7                         CCCCCCOc1ccccc1CO   14.7% (inactive)
 8                 COc1cccc(/C=C/c2ccnnc2)c1    4.3% (inactive)
 9                     CCCCOC(=O)c1cccc(C)c1     -3% (inactive)
10  Cc1nc(SCC(=O)Nc2ccccc2)c2sc(=S)n(-c3ccccc3)c2n1  -45.9% (inactive)
11  O=C1OC(=O)C2C(Cl)C(Cl)C12 (stereo not given)   -5.1% (inactive)
12                        O=C(O)CCCCC1CCCCC1   53.1% (inactive)
13  CC(CC(=O)c1ccccc1)[N+](=O)[O-] (stereo not given)  -10.6% (inactive)
14   CC(=O)Oc1ccccc1C(=O)N(N)CCSc1ccc(Cl)cc1  -0.45% (inactive)
15                           O=C1CCCNC(=O)N1  -11.2% (inactive)
